PROCEDURE DETAILS: Hardness tolerance / hard water stability (surface tension and turbidity vs CaCl2 concentration)
Type: physicochemical
CONDITION DETAILS: surfactant at twice CMC; onset of turbidity
Counter-ions that a name gives are not always drawn.

MOLECULE | Turbid conc.
CCCCCCCc1ccc(S(=O)(=O)[O-])o1.[Na+] [OFS-7, Sodium 5-Heptylfuran-2-Sulfonate] | 230 ppm of CaCl2
CCCCCCCCCCCCc1ccc(S(=O)(=O)[O-])o1.[Na+] [OFS-12, Sodium 5-Dodecylfuran-2-Sulfonate] | 10,000 ppm of CaCl2
CCCCCCCCCCCCOS(=O)(=O)O [SLS, sodium dodecyl sulfate, reference compound] | 33 ppm of CaCl2
CCCCCCCCCCCCCCc1ccc(S(=O)(=O)[O-])o1.[Na+] [OFS-14, Sodium 5-Tetradecylfuran-2-Sulfonate] | 2,000 ppm of CaCl2

Values were extracted from patent US20180327375A1.
